Target: T1, phospholamban (PLN), pentameric (UniProt P61015 P61015:1-52)
T1 sequence: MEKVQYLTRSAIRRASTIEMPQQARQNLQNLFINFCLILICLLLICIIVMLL
Assay: FP; ACE Kd 260 ± 180 nM; MOPS, 0.1% C12E8, 1 mM MgCl2, 5 mM CaCl2, pH 7.0
Conditions: chain copies: 5 (stated pentameric); label: 5'-FAM
Observation Type: Kd (nM)
Give just the number in nM; leave the unit off.

query: Query: Kd; subject: ATAGCTTGCA (ssDNA) [ssDNA 10-mer]
result: 35
